Target: CAAX prenyl protease 2 (Saccharomyces cerevisiae (strain ATCC 204508 / S288c)) (UniProt Q03530)
Sequence (Q03530 whole entry, looked up): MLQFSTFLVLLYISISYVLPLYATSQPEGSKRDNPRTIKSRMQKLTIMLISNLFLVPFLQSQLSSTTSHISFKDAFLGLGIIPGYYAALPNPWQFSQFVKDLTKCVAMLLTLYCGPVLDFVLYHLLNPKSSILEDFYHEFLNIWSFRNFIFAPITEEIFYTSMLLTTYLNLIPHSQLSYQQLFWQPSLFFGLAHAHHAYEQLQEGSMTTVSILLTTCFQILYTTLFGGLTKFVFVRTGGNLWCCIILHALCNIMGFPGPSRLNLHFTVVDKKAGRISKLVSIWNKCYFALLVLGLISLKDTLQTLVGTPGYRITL
Assay: blockers of Rce1 CaaX peptide cleavage – biochemical, fluorescence, cell-free homogeneous, primary screen (AID 2563)
Settings: yeast membranes, quenched prenylated peptide cleavage fluorescence
About 800 (0.28%) of roughly 290,000 compounds were called active. What follows is part of a selection rich in actives, with near analogues and random picks from the rest.
measurement kind: outcome

Solved entries (count: 4):
Tell me the measured outcome of `CCN(CC(=O)Nc1ccccc1C(F)(F)F)C(=O)CSCc1c(C)noc1C` , please.
inactive

Tell me the measured outcome of CC1(C)CC(N(Cc2ccccc2)C(=O)Cc2ccccc2)CCO1 (stereo not drawn) , please.
inactive

Tell me the measured outcome of `CC(C)C(=O)Nc1cccc(NC(=S)NC(=O)C(c2ccccc2)c2ccccc2)c1` , please.
active

Tell me the measured outcome of `CSc1nsc(NC(=O)Nc2ccccc2)n1` , please.
inactive

Quick one: give me outcome for each item below, same order please.
1. Cc1cc(Br)ccc1NC(=O)c1cnc(N2CCN(c3ccccn3)CC2)c2ccccc12
2. COc1cc(NC(=O)CSC(=S)N2CCCC2)c(OC)cc1Cl
3. O=C(Nc1ncccc1O)c1ccc(S(=O)(=O)N2CCCCCC2)cc1
4. Cc1ccc(C)c(NC(=O)COC(=O)Cn2c(C)csc2=O)c1
5. COc1ccccc1C(=O)Nc1ccccc1C(=O)Nc1ccccc1
6. COc1cc(C2C(C(=O)c3cccs3)=C(O)C(=O)N2CCN2CCOCC2)ccc1OCCC(C)C (stereo not drawn)
7. O=C(O)c1ccc(/C=N/NC(=O)c2ccc(Br)cc2)cc1

["active", "inactive", "inactive", "inactive", "inactive", "inactive", "inactive"]

* * *

Biological target: CAAX prenyl protease 2 (Saccharomyces cerevisiae (strain ATCC 204508 / S288c))
Assay: blockers of Rce1 CaaX peptide cleavage – biochemical, fluorescence, cell-free homogeneous, primary screen (AID 2563)
Conditions: yeast membranes, quenched prenylated peptide cleavage fluorescence
In all, about 290,000 compounds went through this assay and about 800 (0.28%) were called active.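 Rule for the calls: active = fall in fluorescence gain of 50% or more versus controls, with final raw signal at or below 3038400; inconclusive = same 50% fall but final raw signal above 3038400; inactive = fall in fluorescence gain under 50%.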 The entries come from a sample that favours actives as a whole.
I would appreciate it if you answered using one of these outcomes: active, inactive

These recorded examples may help you get a feel for the data.
# fetch the recorded call for `O=C(CCC1CCCCC1)Nc1cc(C(F)(F)F)ccc1N1CCOCC1` here
inactive

# fetch the recorded call for `COC(C[C@@H]1O[C@@H]1C(=O)[C@@H](C)OCc1ccccc1)OC` here
active

# fetch the recorded call for `Cc1ccc(C(=O)N/N=C/c2cccc3ccccc23)cn1` here
inactive

# fetch the recorded call for `CN1c2ccc(C=O)c3c(C=O)ccc(c23)N(C)C1(C)C` here
active

# fetch the recorded call for `O=C(NCC1(N2CCCCC2)CCCCC1)c1ccc(NS(=O)(=O)c2ccc(F)cc2)cc1` here
inactive

# fetch the recorded call for `COC(C/C=C/C(=O)[C@@H](C)OCc1ccccc1)OC` here
inactive

# fetch the recorded call for `COC(C[C@@H]1O[C@@H]1C(=O)[C@H](C)OCc1ccccc1)OC` here
inactive

# fetch the recorded call for `Cc1cccc([C@@H]2[C@@H]3C(=O)N(Cc4ccccc4)C(=O)[C@@H]3[C@]3(Cc4ccc(Cl)cc4)C(=O)N(c4cccc(Cl)c4)C(=O)N23)c1` here
inactive

# fetch the recorded call for `O=C(CN1CCOCC1)Nc1cccc([N+](=O)[O-])c1` here
inactive

Kindly consider the entry below.
# fetch the recorded call for COc1ccc(C2CC(c3ccccc3)=NN2C(=O)c2ccc(Cl)c([N+](=O)[O-])c2)cc1 (stereo not given) here
active
